systemTested: APOL1 G1 (Homo sapiens, UniProt O14791, I384M/S342G)
Sequence (O14791 28-398 S342G/I384M): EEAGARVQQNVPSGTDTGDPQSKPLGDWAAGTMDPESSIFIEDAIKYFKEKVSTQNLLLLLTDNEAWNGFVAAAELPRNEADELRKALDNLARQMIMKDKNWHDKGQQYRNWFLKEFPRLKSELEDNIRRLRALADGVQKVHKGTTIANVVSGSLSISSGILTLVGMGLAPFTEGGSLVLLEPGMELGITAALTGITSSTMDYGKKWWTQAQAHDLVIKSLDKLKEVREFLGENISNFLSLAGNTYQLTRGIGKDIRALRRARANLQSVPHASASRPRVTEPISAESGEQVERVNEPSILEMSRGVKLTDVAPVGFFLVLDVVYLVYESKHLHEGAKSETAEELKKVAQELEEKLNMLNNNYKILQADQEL
assayInfo: MultiTox-Fluor Multiplex Cytotoxicity Assay in tet-inducible APOL1 G1 T-REx-HEK293 cells (clone G1 DC3.25)
Type: cell-based
Set-up: expressed in transfected cells; host or cells: T-REx HEK293, pAAVS1-Puro-APOL1 G1, clone G1 DC3.25
condition: Multi-Tox Assay; APOL1 variant cell line not given; read-out: Multi-Tox Assay Max Activity (%)
resultType: Emax (%)

# molecule, systemTested, resultType, observed
rows = [
    ("C[C@H]1C[C@@]2(C[C@@H](C3(N(C)C)CC3)N1)OCCc1cc(Cl)sc12 (racemic)", "APOL1 G1 (Homo sapiens, UniProt O14791, I384M/S342G)", "Emax", 99),
    ("C[C@H]1C[C@@]2(C[C@@H](C3(C#N)CC3)N1)OCCc1cc(Cl)sc12 (racemic)", "APOL1 G1 (Homo sapiens, UniProt O14791, I384M/S342G)", "Emax", 98),
    ("C[C@H]1C[C@@]2(C[C@@H](c3cn(CCC(C)(C)O)nn3)N1)OCC(F)(F)c1cc(Cl)sc12", "APOL1 G1 (Homo sapiens, UniProt O14791, I384M/S342G)", "Emax", 99),
    ("C[C@H]1C[C@@]2(C[C@@H](c3cn(CC4CCC(=O)NC4)nn3)N1)OCC(F)(F)c1cc(Cl)sc12 (stereo partly shown)", "APOL1 G1 (Homo sapiens, UniProt O14791, I384M/S342G)", "Emax", 96),
    ("COc1ccc(Cn2cc([C@@H]3C[C@]4(C[C@H](C)N3)OCC(F)(F)c3cc(Cl)sc34)nn2)cc1F", "APOL1 G1 (Homo sapiens, UniProt O14791, I384M/S342G)", "Emax", 98),
    ("COCC1([C@@H]2C[C@]3(C[C@H](C)N2)OCCc2cc(Cl)sc23)CC1 (racemic)", "APOL1 G1 (Homo sapiens, UniProt O14791, I384M/S342G)", "Emax", 99),
    ("C[C@H]1C[C@@]2(C[C@@H](C3(N)CC3)N1)OCCc1cc(Cl)sc12", "APOL1 G1 (Homo sapiens, UniProt O14791, I384M/S342G)", "Emax", 99),
    ("CCOC(=O)C1CC1[C@@H]1C[C@]2(C[C@H](C)N1)OCCc1cc(Cl)sc12 (stereo in doubt)", "APOL1 G1 (Homo sapiens, UniProt O14791, I384M/S342G)", "Emax", 99),
    ("CC(CO)Cn1cc([C@@H]2C[C@]3(C[C@H](C)N2)OCC(F)(F)c2cc(Cl)sc23)nn1 (stereo partly shown)", "APOL1 G1 (Homo sapiens, UniProt O14791, I384M/S342G)", "Emax", 99),
    ("CC(=O)NC1([C@@H]2C[C@]3(C[C@H](C)N2)OCCc2cc(Cl)sc23)CC1", "APOL1 G1 (Homo sapiens, UniProt O14791, I384M/S342G)", "Emax", 94),
    ("COC(=O)C1([C@@H]2C[C@]3(C[C@H](C)N2)OCCc2cc(Cl)sc23)CC1", "APOL1 G1 (Homo sapiens, UniProt O14791, I384M/S342G)", "Emax", 92),
    ("C[C@H]1C[C@@]2(C[C@@H](c3cn(CC#N)nn3)N1)OCC(F)(F)c1cc(Cl)sc12", "APOL1 G1 (Homo sapiens, UniProt O14791, I384M/S342G)", "Emax", 98),
    ("C[C@H]1C[C@@]2(C[C@@H](c3cn(C[C@@H](O)CO)nn3)N1)OCC(F)(F)c1cc(Cl)sc12", "APOL1 G1 (Homo sapiens, UniProt O14791, I384M/S342G)", "Emax", 99),
    ("C[C@H]1C[C@@]2(C[C@@H](c3cn(CCO)nn3)N1)OCC(F)(F)c1cc(Cl)sc12", "APOL1 G1 (Homo sapiens, UniProt O14791, I384M/S342G)", "Emax", 98),
    ("C[C@H]1C[C@@]2(C[C@@H](C3(CO)CC3)N1)OCCc1cc(Cl)sc12", "APOL1 G1 (Homo sapiens, UniProt O14791, I384M/S342G)", "Emax", 99),
    ("C[C@H]1C[C@@]2(C[C@@H](c3cn(Cc4ccc5nc(O)[nH]c5c4)nn3)N1)OCC(F)(F)c1cc(Cl)sc12", "APOL1 G1 (Homo sapiens, UniProt O14791, I384M/S342G)", "Emax", 95),
    ("C[C@H](CO)Cn1cc([C@@H]2C[C@]3(C[C@H](C)N2)OCC(F)(F)c2cc(Cl)sc23)nn1", "APOL1 G1 (Homo sapiens, UniProt O14791, I384M/S342G)", "Emax", 99),
    ("C[C@H]1C[C@@]2(C[C@@H](c3cn(CC(C)(C)O)nn3)N1)OCC(F)(F)c1cc(Cl)sc12", "APOL1 G1 (Homo sapiens, UniProt O14791, I384M/S342G)", "Emax", 95),
    ("C[C@H]1C[C@@]2(C[C@@H](c3cn(Cc4cncs4)nn3)N1)OCC(F)(F)c1cc(Cl)sc12", "APOL1 G1 (Homo sapiens, UniProt O14791, I384M/S342G)", "Emax", 99),
]

----------
systemTested: APOL1 G1 (Homo sapiens, UniProt O14791, I384M/S342G)
Sequence (O14791 28-398 S342G/I384M): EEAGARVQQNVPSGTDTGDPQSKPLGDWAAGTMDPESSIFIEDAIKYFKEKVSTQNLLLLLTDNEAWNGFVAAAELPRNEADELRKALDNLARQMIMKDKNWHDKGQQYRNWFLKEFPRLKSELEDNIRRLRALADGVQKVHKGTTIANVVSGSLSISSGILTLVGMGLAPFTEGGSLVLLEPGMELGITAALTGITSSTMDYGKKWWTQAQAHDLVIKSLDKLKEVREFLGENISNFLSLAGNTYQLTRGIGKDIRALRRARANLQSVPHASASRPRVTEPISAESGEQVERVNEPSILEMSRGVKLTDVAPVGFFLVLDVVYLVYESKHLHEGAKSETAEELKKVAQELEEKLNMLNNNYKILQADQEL
assayInfo: Trypanosoma brucei brucei Lysis Assay Using APOL1 Recombinant Protein (AlamarBlue viability readout)
Format: cell-based
condition: Trypanosome Assay; IP50 = IC50 for cell proliferation; read-out: Trypanosome Assay IP50
pIC50: −log10 of the molar value.

# molecule, pIC50
rows = [
    ("CC(=O)Nc1cccc([C@@H]2C[C@]3(C[C@H](C)N2)OCCc2cc(Cl)sc23)c1 (racemic)", "6.30 to 7.30"),
    ("CC(=O)Nc1ccc([C@@H]2C[C@]3(C[C@H](C)N2)OCCc2cc(Cl)sc23)cc1 (racemic)", "> 7.30"),
    ("CCC1CC2(CC(C)N1)OCCc1cc(Cl)sc12 (mixture of isomers)", "6.30 to 7.30"),
    ("C[C@H]1C[C@@]2(C[C@@H](c3cnn(C4CCOCC4)c3)N1)OCCc1cc(Cl)sc12 (racemic)", "> 7.30"),
    ("C[C@H]1CC2(C[C@@H](c3cn(C)nn3)N1)OCC(C)(C)c1sc(Cl)cc12 (stereo in doubt)", "> 7.30"),
    ("C[C@H]1C[C@@]2(C[C@@H](c3cccc4[nH]c(=O)oc34)N1)OCCc1cc(Cl)sc12 (racemic)", "6.30 to 7.30"),
    ("C[C@H]1C[C@@]2(C[C@@H](c3ccc(C(N)=O)cc3)N1)OCCc1cc(Cl)sc12 (racemic)", "> 7.30"),
]

----------
systemTested: APOL1 G1 (Homo sapiens, UniProt O14791, I384M/S342G)
Sequence (O14791 28-398 S342G/I384M): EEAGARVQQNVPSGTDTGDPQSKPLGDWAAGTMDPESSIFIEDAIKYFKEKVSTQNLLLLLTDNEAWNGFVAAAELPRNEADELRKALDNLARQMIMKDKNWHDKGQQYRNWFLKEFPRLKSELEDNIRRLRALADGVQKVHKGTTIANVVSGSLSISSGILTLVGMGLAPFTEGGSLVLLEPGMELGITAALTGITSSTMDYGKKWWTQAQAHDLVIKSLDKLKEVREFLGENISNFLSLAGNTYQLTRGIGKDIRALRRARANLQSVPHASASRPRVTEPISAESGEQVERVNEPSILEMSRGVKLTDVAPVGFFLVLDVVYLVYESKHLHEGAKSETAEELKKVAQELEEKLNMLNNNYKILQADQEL
assayInfo: Trypanosoma brucei brucei Lysis Assay Using APOL1 Recombinant Protein (AlamarBlue viability readout)
Format: cell-based
condition: Trypanosome Assay; IP50 = IC50 for cell proliferation; read-out: Trypanosome Assay IP50
pIC50: −log10 of the molar value.

# molecule, pIC50
records = [
    ("Cc1nocc1[C@@H]1C[C@]2(C[C@H](C)N1)OCCc1cc(Cl)sc12 (racemic)", "6.30 to 7.30"),
    ("Cc1nn(C)cc1[C@@H]1C[C@]2(C[C@H](C)N1)OCCc1cc(Cl)sc12 (racemic)", "6.30 to 7.30"),
    ("Cc1nc[nH]c1[C@@H]1C[C@]2(C[C@H](C)N1)OCCc1cc(Cl)sc12 (racemic)", "< 6.30"),
    ("C[C@H]1C[C@@]2(C[C@@H](c3cnc(N)nc3)N1)OCCc1cc(Cl)sc12 (racemic)", "> 7.30"),
]
